targetOrTestSystem: dopamine transporter (Homo sapiens)
Sequence (Q01959 whole entry): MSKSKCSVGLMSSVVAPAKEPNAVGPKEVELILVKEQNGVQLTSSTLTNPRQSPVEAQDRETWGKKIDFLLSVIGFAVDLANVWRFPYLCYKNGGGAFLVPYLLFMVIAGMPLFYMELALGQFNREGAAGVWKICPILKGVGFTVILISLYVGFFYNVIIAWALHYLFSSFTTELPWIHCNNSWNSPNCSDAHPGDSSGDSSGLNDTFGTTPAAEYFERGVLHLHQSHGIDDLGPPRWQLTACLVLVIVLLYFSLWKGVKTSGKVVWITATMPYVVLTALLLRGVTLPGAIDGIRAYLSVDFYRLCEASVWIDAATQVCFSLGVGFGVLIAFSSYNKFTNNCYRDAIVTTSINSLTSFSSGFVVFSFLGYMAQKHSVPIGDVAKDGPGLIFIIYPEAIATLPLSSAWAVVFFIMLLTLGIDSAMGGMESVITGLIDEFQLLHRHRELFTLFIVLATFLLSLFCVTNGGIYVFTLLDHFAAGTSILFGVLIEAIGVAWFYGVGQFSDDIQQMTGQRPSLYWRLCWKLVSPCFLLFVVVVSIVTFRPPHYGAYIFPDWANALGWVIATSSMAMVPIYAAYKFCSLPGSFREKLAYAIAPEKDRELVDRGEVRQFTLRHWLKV
experimentNotes: DA uptake: displacement of dopamine ligands in vitro (methods of Gu et al.)
studyConditions: DA Uptake, Uptake Profile (IC50, nM), displacement of dopamine ligands in vitro
Consider the following compounds; for each one, report its IC50.

Exercise: Fill in IC50 for record COc1ccc2[nH]cc(CCN3CCCC(COc4ccc(C(F)(F)F)cc4)C3)c2c1 (stereo not shown)
Solution: < 1000 nM

Exercise: Fill in IC50 for record `O[C@H](CN1CCC[C@@H](COc2ccc(C(F)(F)F)cc2)C1)C1(c2ccc(Cl)cc2)CCC1`
Solution: < 10 nM

Exercise: Fill in IC50 for record CC(O)(CN1CCCC(COc2ccccc2)C1)c1ccc(Cl)cc1 (stereo not shown)
Solution: < 1000 nM

Exercise: Fill in IC50 for record c1ccc(OCC2CCCN(CC3(c4ccccc4)CCC3)C2)cc1 (stereo not shown)
Solution: < 1000 nM

###

targetOrTestSystem: norepinephrine transporter (Homo sapiens, UniProt P23975)
Sequence (P23975 whole entry): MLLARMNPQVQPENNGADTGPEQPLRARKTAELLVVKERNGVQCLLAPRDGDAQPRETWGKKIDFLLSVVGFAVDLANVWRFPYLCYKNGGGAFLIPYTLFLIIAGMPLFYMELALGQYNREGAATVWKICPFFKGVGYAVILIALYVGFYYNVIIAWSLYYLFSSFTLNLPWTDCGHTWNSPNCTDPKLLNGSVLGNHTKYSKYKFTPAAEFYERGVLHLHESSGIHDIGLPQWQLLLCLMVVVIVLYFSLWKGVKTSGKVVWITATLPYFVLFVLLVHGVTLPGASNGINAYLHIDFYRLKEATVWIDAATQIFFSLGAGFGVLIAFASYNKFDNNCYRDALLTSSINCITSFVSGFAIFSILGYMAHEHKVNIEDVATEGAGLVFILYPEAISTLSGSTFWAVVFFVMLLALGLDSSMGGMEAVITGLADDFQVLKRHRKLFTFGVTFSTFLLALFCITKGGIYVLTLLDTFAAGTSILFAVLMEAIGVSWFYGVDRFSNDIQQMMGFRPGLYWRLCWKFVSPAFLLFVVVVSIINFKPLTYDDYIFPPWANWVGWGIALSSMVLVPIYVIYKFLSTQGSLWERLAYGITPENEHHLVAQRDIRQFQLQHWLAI
experimentNotes: NE uptake: displacement of norephinephrine ligands in vitro (methods of Galli et al.)
Format: binding
studyConditions: NE Uptake, Uptake Profile (IC50, nM)
measurementName: IC50

Exercise: Fill in IC50 for record `O[C@H](CN1CCC[C@H](COc2ccc(C(F)(F)F)cc2)C1)C1(c2ccc(Cl)cc2)CCC1`
Solution: < 100 nM

Exercise: Fill in IC50 for record `FC(F)(F)c1ccc(OC[C@H]2CCCN(CC3(c4ccc(Cl)cc4)CCC3)C2)cc1`
Solution: < 1000 nM

Exercise: Fill in IC50 for record FC(F)(F)c1ccc(OCC2CCCN(CC3(c4ccc(Cl)cc4)CCOCC3)C2)cc1 (centres unmarked)
Solution: < 1000 nM

Exercise: Fill in IC50 for record O=C(N1CCCC(CO)C1)C1(c2ccc(Cl)cc2)CCC1 (centres unmarked)
Solution: > 1000 nM

Exercise: Fill in IC50 for record OC(CN1CCCC(CCc2ccc(C(F)(F)F)cc2)C1)c1ccc(Cl)cc1 (single isomer, unassigned) [compound 153]
Solution: < 100 nM

Exercise: Fill in IC50 for record CC(CC1CCCN(CC2(c3ccc(Cl)cc3)CCC2)C1)c1ccccc1 (stereo in doubt)
Solution: < 1000 nM

Exercise: Fill in IC50 for record O=C(CC1CCCN(CC2(c3ccc(Cl)cc3)CCC2)C1)c1ccccc1 (stereo in doubt)
Solution: < 1000 nM

Exercise: Fill in IC50 for record CNC(CN1CCC[C@@H](CCc2ccccc2)C1)c1ccc(Cl)cc1 (some centres unmarked)
Solution: < 1000 nM

###

targetOrTestSystem: serotonin transporter (Homo sapiens, UniProt P31645)
Sequence (P31645 whole entry): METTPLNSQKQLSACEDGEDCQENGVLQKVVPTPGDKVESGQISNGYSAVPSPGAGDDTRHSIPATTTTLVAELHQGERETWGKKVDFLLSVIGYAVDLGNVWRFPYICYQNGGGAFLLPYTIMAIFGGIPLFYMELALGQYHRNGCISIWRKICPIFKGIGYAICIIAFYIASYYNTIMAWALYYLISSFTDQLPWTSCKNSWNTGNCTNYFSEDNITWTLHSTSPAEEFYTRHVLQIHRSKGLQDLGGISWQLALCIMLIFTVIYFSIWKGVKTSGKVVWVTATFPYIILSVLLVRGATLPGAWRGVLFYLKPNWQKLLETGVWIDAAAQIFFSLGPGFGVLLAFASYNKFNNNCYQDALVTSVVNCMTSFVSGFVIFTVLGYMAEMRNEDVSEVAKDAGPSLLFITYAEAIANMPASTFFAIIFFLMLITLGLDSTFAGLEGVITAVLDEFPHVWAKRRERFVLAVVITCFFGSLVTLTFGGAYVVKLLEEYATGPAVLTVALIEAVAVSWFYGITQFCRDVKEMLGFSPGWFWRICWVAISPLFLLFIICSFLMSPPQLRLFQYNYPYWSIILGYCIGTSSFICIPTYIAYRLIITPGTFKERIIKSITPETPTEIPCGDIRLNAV
experimentNotes: Functional activity, serotonin uptake inhibition in human HEK-293 cell lines
Assay type: cell-based
Parameters: expressed in transfected cells; host or cells: HEK-293
studyConditions: human HEK-293 cell lines; read-out: 5-HT Uptake, Functional Assays (antagonism, EC50)
Consider the following compounds; for each one, report its EC50.

Exercise: Fill in EC50 for record Clc1ccc(C2(CN3CCCC(COc4ccc5c(c4)OCO5)C3)CCC2)cc1 (centres unmarked) [compound 83]
Solution: < 0.1 µM

Exercise: Fill in EC50 for record O[C@H](CN1CCC[C@H](COc2ccc(C(F)(F)F)cc2)C1)C1(c2ccc(Cl)cc2)CCC1 [compound 124]
Solution: < 1 µM

Exercise: Fill in EC50 for record OC(CN1CCC[C@@H](CCc2ccccc2)C1)c1ccc(Cl)cc1 (some centres unmarked) [compound 233]
Solution: < 0.01 µM

Exercise: Fill in EC50 for record O=C(CN1CCC[C@H](COc2ccc(C(F)(F)F)cc2)C1)C1(c2ccc(Cl)cc2)CCC1 [compound 123]
Solution: < 1 µM

Exercise: Fill in EC50 for record OC(CN1CCCC(COc2ccc(C(F)(F)F)cc2)C1)C1(c2ccccc2OC(F)(F)F)CCC1 (single isomer, unassigned) [compound 224]
Solution: < 1 µM

Exercise: Fill in EC50 for record CC(Oc1ccc(C(F)(F)F)cc1)C1CCCN(CC2(c3ccc(Cl)cc3)CCC2)C1 (centres unmarked) [compound 99]
Solution: > 1 µM

Exercise: Fill in EC50 for record O=C(CN1CCC[C@@H](COc2ccc(C(F)(F)F)cc2)C1)C1(c2ccc(Cl)cc2)CCC1 [compound 128]
Solution: < 1 µM

Exercise: Fill in EC50 for record FC(F)(F)c1ccc(COC[C@H]2CCCN(CC3(c4ccc(Cl)cc4)CCC3)C2)cc1 [compound 129]
Solution: < 0.1 µM
